Just for reference, patent US20080145886A1 is where these values come from.

# assayed_target: CYP3A4/5 (Homo sapiens)
# test: in vitro
# condition_label: microsomes
recorded_endpoint: pIC50
pIC50 here: minus log base 10 of the concentration, concentration in moles per litre.

Q) Return reported pIC50; argument: CC(C)C[C@H]1C(=O)N2CCC[C@H]2[C@]2(O)O[C@](NC(=O)[C@@H]3C=C4c5cccc6[nH]c(Br)c(c56)C[C@H]4N(C)C3)(C(C)C)C(=O)N12 [Bromocriptine]
A) 5.85

* * *

Recorded pIC50 for the following molecules
# assayed_target: CYP3A4/5 (Homo sapiens, UniProt P08684)
# Sequence (P08684 2-503): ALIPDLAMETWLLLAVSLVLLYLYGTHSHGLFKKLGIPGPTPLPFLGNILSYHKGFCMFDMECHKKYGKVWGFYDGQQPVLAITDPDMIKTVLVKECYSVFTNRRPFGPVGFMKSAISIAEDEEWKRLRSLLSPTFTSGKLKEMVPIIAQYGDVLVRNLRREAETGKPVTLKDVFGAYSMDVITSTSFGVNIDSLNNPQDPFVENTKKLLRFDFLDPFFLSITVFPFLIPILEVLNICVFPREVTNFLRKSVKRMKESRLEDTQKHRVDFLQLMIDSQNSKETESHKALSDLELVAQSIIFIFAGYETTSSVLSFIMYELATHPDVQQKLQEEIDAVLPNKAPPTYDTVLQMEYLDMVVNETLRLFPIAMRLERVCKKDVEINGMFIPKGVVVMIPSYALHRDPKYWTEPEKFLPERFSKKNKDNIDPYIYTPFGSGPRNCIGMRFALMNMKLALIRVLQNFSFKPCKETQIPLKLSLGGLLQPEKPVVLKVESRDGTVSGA
# test: in vitro
# condition_label: microsomes, pH 7.6
pIC50 here: minus log base 10 of the concentration, concentration in moles per litre.

CC(C)C[C@H]1C(=O)N2CCC[C@H]2[C@]2(O)O[C@](NC(=O)[C@@H]3C=C4c5cccc6[nH]c(Br)c(c56)C[C@H]4N(C)C3)(C(C)C)C(=O)N12 [Bromocriptine] ... 5.92

Now turn to the next molecule.
Q) Return reported pIC50; argument: Clc1ccc(COC(Cn2ccnc2)c2ccc(Cl)cc2Cl)c(Cl)c1 (centres unmarked) [Miconazole]
A) 7.22
